// reported TGI per item
tested on: SNB-75 CNS; experiment: NCI tumour cell line growth inhibition, 48 h

Some compounds with recorded TGI:
{"compound": "CCN(CC)CCNc1nc(N)c(C#N)c(C#N)c1C#N", "result.type": "TGI", "test.result": "> 10 µM"}
{"compound": "O=c1c(F)cn(Cc2ccc(C34CC5CC(CC(C5)C3)C4)c(O)c2)c(=O)n1Cc1ccc(C23CC4CC(CC(C4)C2)C3)c(O)c1", "result.type": "TGI", "test.result": "30 µM"}
{"compound": "CCCCCC#CCOC(=O)C(=[N+]=[N-])P(=O)(c1ccccc1)c1ccccc1", "result.type": "TGI", "test.result": "> 10 µM"}
{"compound": "COc1c(O)c2c(=O)cc3c4c5c(cc(=O)c6c(O)c(OC)c(CC(C)O)c(c(c1CC(C)O)c24)c65)OCO3 (stereo not given)", "result.type": "TGI", "test.result": "7.56 µM"}
{"compound": "N[C@@H](Cc1ccccc1)C(=O)N1CCC[C@@H]1P(=O)(Oc1ccccc1)Oc1ccccc1", "result.type": "TGI", "test.result": "> 100 µM"}
{"compound": "O=[N+]([O-])C(=C(Nc1cccc2cccnc12)Nc1cccc2cccnc12)C(Cl)=C(Cl)Cl", "result.type": "TGI", "test.result": "> 100 µM"}
{"compound": "O=C1OCC/C1=N/O", "result.type": "TGI", "test.result": "> 100 µM"}
{"compound": "CCNC(=S)NNC(=O)C12CC3CC(CC(C3)C1)C2", "result.type": "TGI", "test.result": "> 100 µM"}

Q. Item O=C(c1ccco1)c1c(C(F)(F)F)nc2ccc(Cl)cc2[n+]1[O-] has what recorded TGI?
A. > 100 µM

Q. Item Cc1nc(N)sc1N=Nc1ccccc1Br has what recorded TGI?
A. 37.5 µM

* * *

system: OVCAR-8 ovarian; test: NCI tumour cell line growth inhibition, 48 h
// reported TGI per item

Some compounds with recorded TGI:
{"compound": "O=C1N=C2Sc3ccc4ccccc4c3N2C1=O", "TGI": "34 µM"}
{"compound": "COc1ccc(-c2nc(SCC(=O)NNC(=S)Nc3ccccc3)[nH]c2-c2ccc(OC)cc2)cc1", "TGI": "> 100 µM"}
{"compound": "CC(C)C1=Cc2ccc3c(c2C(=O)C1=O)CCCC3(C)C", "TGI": "10 µM"}
{"compound": "CC1(C)[C@@H]2CC[C@@]1(C)CN(CCC[N+](C)(C)C)C2", "TGI": "> 100 µM"}
{"compound": "Cc1nn(-c2ccccc2)c2c1C(c1cc3ccccc3nc1Cl)NC(=O)N2 (centres undefined)", "TGI": "47.4 µM"}
{"compound": "COc1cc(N(CCC#N)CCC#N)ccc1/C(N=Nc1ccc(Cl)cc1)=N/NC(=O)c1cc(Br)ccc1O", "TGI": "108 µg/mL"}

Q. Item Nc1ncc(-c2ccc3ncnc(Nc4ccc(F)c(Cl)c4)c3c2)cn1 has what recorded TGI?
A. 17.5 µM

Q. Item N#Cc1nn(-c2cc(=O)[nH]c3ccc(Cl)cc23)c(N)c1C#N has what recorded TGI?
A. > 100 µM

Q. Item CCOC(=O)N[C@H]1CCc2cc(OC)c(OC)c(OC)c2-c2ccc(SC)c(=O)cc21 has what recorded TGI?
A. > 100 µM

Q. Item CSc1cc(-c2cccs2)sc1-c1cc(SC)c(-c2sc(-c3sc(-c4cccs4)cc3SC)cc2SC)s1 has what recorded TGI?
A. > 100 µM

Q. Item O=C1c2ccccc2C(=O)N1n1c(Cc2ccc([N+](=O)[O-])cc2)n[nH]c1=O has what recorded TGI?
A. > 100 µM

Q. Item COCC(OC)C(CC=C(C#N)C#N)OC (centres undefined) has what recorded TGI?
A. > 100 µM

Q. Item CC1=CCC([C@@](C)(O)CCCC(C)(C)N=C=S)CC1 (some centres undefined) has what recorded TGI?
A. 32.7 µM

Q. Item CSc1nc(SC)c2c(C#N)[nH]nc2n1 has what recorded TGI?
A. > 100 µM

Q. Item C[C@@H]1C[C@@H]([C@@H](CC2CC(=O)NC(=O)C2)OC(=O)CC(=O)c2ccccc2)C(=O)[C@@H](C)C1 has what recorded TGI?
A. > 68.8 µM

Q. Item O=C1NC2c3c(I)sc(I)c3C(O)C2O1 (centres undefined) has what recorded TGI?
A. > 100 µM

Q. Item NCCCN1c2ccccc2Sc2ccc(Cl)cc21 has what recorded TGI?
A. > 10 µM

Q. Item CCOC(=O)c1c(-c2ccc(O)c(OC)c2)c(C#N)c(=S)n(C2OC(CO)C(O)C(O)C2O)c1-c1ccccc1 (centres undefined) has what recorded TGI?
A. > 100 µM

Q. Item N#CNC(=NCc1ccccc1)N(Cc1ccccc1)Cc1ccccc1 has what recorded TGI?
A. > 31.6 µM

Every entry's value here was drawn from PubChem BioAssay (NCI).
